All figures here come from the supplement of paper PMC10567573.

# protein stability index per entry
B1: CIB1 (parent)
chain: DLSRLVNCLTGEGEDTRLSASEMK

Variants of: B1
test_description: protein stability index of a GFP-peptide fusion (GPS, HEK-293T) (PSI 1-6); higher = more stable;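 further: lentivirally expressed fusions sorted by FACS into six bins by GFP to DsRed ratio, PSI derived from sequencing read proportions per bin multiplied by bin number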
condition_context: c terminus: a fixed tail appended
parameter: protein stability index

1) DLSRLSNCLTGEGEDTRLSASEMK [V6S] | 2.6
2) DLSRLVNCLTGEREDTRLSASEMK [G13R] | 2.89
3) DLSRLVNCLTGEGEDTRLSASEMF [K24F] | 2.57
4) DLSRLVNCLTGEGEDTRLSASEQK [M23Q] | 2.6
5) DPSRLVNCLTGEGEDTRLSASEMK [L2P] | 5.35
6) ALSRLVNCLTGEGEDTRLSASEMK [D1A] | 2.84
7) DLYRLVNCLTGEGEDTRLSASEMK [S3Y] | 2.79
8) DLSRLVNCLTGEGEDTRLSCSEMK [A20C] | 2.31
9) DCSRLVNCLTGEGEDTRLSASEMK [L2C] | 3.87
10) DLSRLVNCLTGEEEDTRLSASEMK [G13E] | 3.07
11) DLSHLVNCLTGEGEDTRLSASEMK [R4H] | 3.96
12) DLSRLVNCLTGESEDTRLSASEMK [G13S] | 3.97
13) DLSRLVNCLTGEGEDSRLSASEMK [T16S] | 2.48
14) DLSRLVNCLTGEGEDTRLEASEMK [S19E] | 3.61
15) DLSFLVNCLTGEGEDTRLSASEMK [R4F] | 3.88
16) DLSRLVNCLTGEGEDTRLSASEMH [K24H] | 2.37
17) DLSRLVRCLTGEGEDTRLSASEMK [N7R] | 3.09
18) DLSRLVDCLTGEGEDTRLSASEMK [N7D] | 4.32
19) DLSLLVNCLTGEGEDTRLSASEMK [R4L] | 3.47
20) DLSRLVNCLTNEGEDTRLSASEMK [G11N] | 3.7
21) DLSRLVNCLTGEGEDTRLSNSEMK [A20N] | 2.75
22) DLSRLVNCLTGEGEDTRLSASSMK [E22S] | 3.35
